System: 922993-354-T-J3-PDC complex spheroids, viability;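 note: spheroids exposed to compounds for seven days; 100% = DMSO vehicle control viability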
assay: Anticancer human tumor 922993-354-T-J3-PDC patient-derived endometrial carcinoma cell line growth inhibition [GQUAD]
recordedConditions: second compound 1 µM; first compound 0.316 µM; hits give low values
quantity: viability, T/C (%)
Respond numerically; units are % and should not be typed.

Incoming: Missing value: viability, T/C, 922993-354-T-J3-PDC complex spheroids, viability, entry CC(C)n1c(=O)n(C)c2cnc3cc(F)c(-c4ccc(OCCCN5CCCCC5)nc4)cc3c21 + Cc1[nH]c2ccc(F)cc2c1-c1nc2c3cccnc3c3ncccc3c2[nH]1 . Fill in?
Outgoing: 131

Incoming: Missing value: viability, T/C, 922993-354-T-J3-PDC complex spheroids, viability, entry O=c1[nH]cc(F)c(=O)[nH]1 + Cc1cnc(CNC(=O)c2c(=O)c3ccc(N4CCCN(C)CC4)nc3n3c2sc2ccccc23)cn1 . Fill in?
Outgoing: 40.8

Incoming: Missing value: viability, T/C, 922993-354-T-J3-PDC complex spheroids, viability, entry CC1COCCN1c1cc(C2(S(C)(=N)=O)CC2)nc(-c2ccnc3[nH]ccc23)n1 (stereo unspecified) + Cc1cnc(CNC(=O)c2c(=O)c3ccc(N4CCCN(C)CC4)nc3n3c2sc2ccccc23)cn1 . Fill in?
Outgoing: 51.7

Incoming: Missing value: viability, T/C, 922993-354-T-J3-PDC complex spheroids, viability, entry CC1COCCN1c1cc(-c2ccnn2C)c2ccnc(-c3ccn[nH]3)c2n1 (stereo unspecified) + CN(C)c1ccc(Nc2c3ccc(NC(=O)CCN4CCCC4)cc3nc3cc(NC(=O)CCN4CCCC4)ccc23)cc1 . Fill in?
Outgoing: 54.2

Incoming: Missing value: viability, T/C, 922993-354-T-J3-PDC complex spheroids, viability, entry Cn1ncnc1[C@H]1c2n[nH]c(=O)c3cc(F)cc(c23)N[C@@H]1c1ccc(F)cc1 + Cc1[nH]c2ccc(F)cc2c1-c1nc2c3cccnc3c3ncccc3c2[nH]1 . Fill in?
Outgoing: 69.6

Incoming: Missing value: viability, T/C, 922993-354-T-J3-PDC complex spheroids, viability, entry O=C(NO)c1cnc(N2CCN(S(=O)(=O)c3ccc4ccccc4c3)CC2)nc1 + CN(C)c1ccc(Nc2c3ccc(NC(=O)CCN4CCCC4)cc3nc3cc(NC(=O)CCN4CCCC4)ccc23)cc1 . Fill in?
Outgoing: 54.5
